Every entry's value here was drawn from ChEMBL document CHEMBL5500396.

protocol-summary: in vitro
condition-set: guinea pig, hepatocytes
Description: Metabolic stability in guinea pig hepatocytes assessed as clearance measured per 10^6 cells at 1 uM incubated for 90 mins by LC-MS/MS analysis
Hi there, I'd appreciate the recorded hepatocyte CLint at 1.5 h, 1 µM for every entry that follows.
Give bare numbers, in µL/min/1e6 cells.

// solved cases for hepatocyte CLint at 1.5 h, 1 µM follow
| molecule | u | hepatocyte CLint at 1.5 h, 1 µM |
| --- | --- | --- |
| CCN1CCC(COC(=O)[C@](O)(c2ccccc2)c2cccc(OCCCNC(=O)c3cc(OC)c(CNC[C@H](O)c4ccc(O)c5[nH]c(=O)ccc45)cc3F)c2)CC1.O=C(O)C(F)(F)F.O=C(O)C(F)(F)F | µL/min/1e6 cells | 60 |
| O=C(NCc1ccc(-c2cccc([C@](O)(C(=O)OCC3CCN(Cc4ccccc4)CC3)c3ccccc3)c2)s1)c1ccc(CNC[C@H](O)c2ccc(O)c3[nH]c(=O)ccc23)cc1 | µL/min/1e6 cells | 295 |
| O=C(NCCCOc1cccc([C@](O)(C(=O)OCC2CCN(Cc3ccccc3)CC2)c2ccccc2)c1)c1ccc(CNC[C@H](O)c2ccc(O)c3[nH]c(=O)ccc23)cc1 | µL/min/1e6 cells | 316 |

Q. Using the record for O=C(NCCCOc1cccc([C@@](O)(C(=O)OCC2CCN(Cc3ccccc3)CC2)c2ccccc2)c1)c1ccc(CNCC(O)c2ccc(O)c3[nH]c(=O)ccc23)cc1 (some centres undefined) , report its hepatocyte CLint at 1.5 h, 1 µM.
A. 41

###

protocol-summary: in vitro
condition-set: rat, lung S9 fraction
Description: Stability in rat lung S9 fraction assessed as half-life at 1 uM incubated for 60 mins by LC-MS/MS analysis
quantity-kind: half-life at 1 h, 1 µM
In your response, the unit should come after the numeric value.

// solved cases for half-life at 1 h, 1 µM follow
| molecule | half-life at 1 h, 1 µM |
| --- | --- |
| CCN1CCC(COC(=O)[C@](O)(c2ccccc2)c2cccc(OCCCNC(=O)c3cc(OC)c(CNC[C@H](O)c4ccc(O)c5[nH]c(=O)ccc45)cc3F)c2)CC1.O=C(O)C(F)(F)F.O=C(O)C(F)(F)F | 4.67 h |
| COc1cc(C(=O)NCCCOc2cccc([C@](O)(C(=O)OCC3CCN(Cc4ccccc4)CC3)c3ccccc3)c2)ccc1CNC[C@H](O)c1ccc(O)c2[nH]c(=O)ccc12 | 3.95 h |
| O=C(NCCCOc1cccc([C@](O)(C(=O)OCC2CCN(Cc3ccccc3)CC2)c2ccccc2)c1)c1ccc(CNC[C@H](O)c2ccc(O)c3[nH]c(=O)ccc23)cc1 | 2.37 h |
| O=C(c1ccc(CCNC[C@H](O)c2ccc(O)c3[nH]c(=O)ccc23)cc1)N1CCC(c2cccc([C@](O)(C(=O)OCC3CCN(Cc4ccccc4)CC3)c3ccccc3)c2)CC1 | 2.47 h |

Q. Using the record for O=C(NCCCOc1cccc([C@@](O)(C(=O)OCC2CCN(Cc3ccccc3)CC2)c2ccccc2)c1)c1ccc(CNCC(O)c2ccc(O)c3[nH]c(=O)ccc23)cc1 (stereo not given in full) , report its half-life at 1 h, 1 µM.
A. 4.52 h

###

protocol-summary: Drug concentration in male albino Dunkin-Hartley guinea pig lung at 50 nmol/kg, IT(Intratracheal) measured after 0.083 hrs
condition-set: inhaled or intranasal
quantity-kind: concentration at 0.083 h (ng/g)
Give bare numbers, in ng/g.

Q. Using the record for O=C(NCCCOc1cccc([C@](O)(C(=O)OCC2CCN(Cc3ccccc3)CC2)c2ccccc2)c1)c1ccc(CNC[C@H](O)c2ccc(O)c3[nH]c(=O)ccc23)cc1 , report its concentration at 0.083 h.
A. 1270
